# assay-remarks: Selectivity ratio of IC50 for human primary CD34+ blood stem cells to IC50 for human MA9.3 cells
# test-settings: primary CD34+ blood stem cells versus MA9.3 cells, read-out: Ratio IC50
measure-name: selectivity ratio
Hey, just send me the number, nothing else.

Request: Any idea what selectivity ratio was measured for `C=C1C(=O)O[C@@H]2[C@H]3O[C@]3(C)CC/C=C(\C)CC[C@@H]12` ?
Result: 2.1

Request: Any idea what selectivity ratio was measured for `CN(CC(=O)Nc1cc(O)ccc1O)C1CCCCC1` ?
Result: 3.8

Request: Any idea what selectivity ratio was measured for `O=C(CNC1CCCCC1)Nc1cc(O)ccc1O` ?
Result: 11.5

Request: Any idea what selectivity ratio was measured for `CN(CC(=O)Nc1cc(O)ccc1O)c1ccccc1` ?
Result: 2

Request: Any idea what selectivity ratio was measured for `COc1cc(/C=C/C(=O)N2CCC=CC2=O)cc(OC)c1OC` ?
Result: 3.7
